Listing: relative viability of selected compounds
# System: ABC-1
# protocol-text: relative viability (nuclei count vs DMSO), 5 days (fraction); higher = more cells survive
# conditions-used: first compound 0.1 µM
Lab note: jot the number down without any unit.

# annotated cases, reported relative viability shown
INSERT INTO results (compound, quantity_measured, readout_value) VALUES
  ('CCN(CC)CCCCNc1ncc2cc(-c3cc(OC)cc(OC)c3)c(NC(=O)NC(C)(C)C)nc2n1 + NC(=O)Nc1cc(-c2cccc(F)c2)sc1C(=O)N[C@H]1CCCNC1 [AZD7762] (partner 0.2 µM)', 'relative viability', 1.1),
  ('CCN(CC)CCCCNc1ncc2cc(-c3cc(OC)cc(OC)c3)c(NC(=O)NC(C)(C)C)nc2n1 + O=C(CCCCCCC(=O)Nc1ccccc1)NO [Vorinostat] (partner 1 µM)', 'relative viability', 1.35),
  ('CCN(CC)CCCCNc1ncc2cc(-c3cc(OC)cc(OC)c3)c(NC(=O)NC(C)(C)C)nc2n1 + CS(=O)(=O)CCNCc1ccc(-c2ccc3ncnc(Nc4ccc(OCc5cccc(F)c5)c(Cl)c4)c3c2)o1 [Lapatinib] (partner 2 µM)', 'relative viability', 1.22),
  ('CCN(CC)CCCCNc1ncc2cc(-c3cc(OC)cc(OC)c3)c(NC(=O)NC(C)(C)C)nc2n1 + CC(C)C[C@H](NC(=O)[C@H](Cc1ccccc1)NC(=O)c1cnccn1)B(O)O [Bortezomib] (partner 0.002 µM)', 'relative viability', 0.342);

*Q* Which relative viability is listed for O=c1cc(N2CCOCC2)oc2c(-c3cccc4c3sc3ccccc34)cccc12 + CC(=O)c1c(C)c2cnc(Nc3ccc(N4CCNCC4)cn3)nc2n(C2CCCC2)c1=O [Palbociclib] (partner 0.5 µM) ?
*A* 0.699
